target under test: human GCG receptor (human, UniProt P47871 26-477)
Sequence (P47871 26-477): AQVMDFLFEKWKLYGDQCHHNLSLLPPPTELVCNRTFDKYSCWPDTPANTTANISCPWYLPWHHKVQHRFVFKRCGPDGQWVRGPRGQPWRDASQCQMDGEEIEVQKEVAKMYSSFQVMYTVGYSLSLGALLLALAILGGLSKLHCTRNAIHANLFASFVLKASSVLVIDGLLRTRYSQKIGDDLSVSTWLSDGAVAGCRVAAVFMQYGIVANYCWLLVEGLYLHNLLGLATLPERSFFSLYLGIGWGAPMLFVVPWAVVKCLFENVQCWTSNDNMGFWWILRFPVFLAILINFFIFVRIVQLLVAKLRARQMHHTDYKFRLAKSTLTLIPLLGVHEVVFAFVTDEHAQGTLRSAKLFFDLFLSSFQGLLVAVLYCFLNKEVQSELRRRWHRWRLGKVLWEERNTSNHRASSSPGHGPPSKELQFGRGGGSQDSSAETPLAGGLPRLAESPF
assay protocol: cell-based or functional assay
Bridges are numbered along the chain shown (N, C = ends). Where no end group is shown, it is not given here. [ ]: non-standard residue; d: D form. The star is where a group is joined. Acetyl(2-(4-imidazolyl)) = O=C(Cc1c[nH]cn1)*; Aib = CC(C)(N)C(=O)O
Rule: measured In vitro activity (%) vs. Glucagon, cAMP EC50 below 10% gets class 1; anything equal to or greater than 10% gets class 0.

binder	label value
H[Aib]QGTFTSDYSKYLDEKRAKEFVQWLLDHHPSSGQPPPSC (bridge 16-20; ends not checked) [triple agonist of SEQ ID NO: 50]	class 0
{Acetyl(2-(4-imidazolyl))}-[Aib]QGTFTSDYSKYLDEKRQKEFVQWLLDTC (bridge 15-19) [triple agonist of SEQ ID NO: 82]	class 1
Y[Aib]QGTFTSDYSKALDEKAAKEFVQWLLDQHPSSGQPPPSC (bridge 16-20) [triple agonist of SEQ ID NO: 100]	class 0
{Acetyl(2-(4-imidazolyl))}-[Aib]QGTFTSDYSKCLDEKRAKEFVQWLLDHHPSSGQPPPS (bridge 15-19) [triple agonist of SEQ ID NO: 74]	class 1

Now look at this entry.
# input Regarding Y[Aib]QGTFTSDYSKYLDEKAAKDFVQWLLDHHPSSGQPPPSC (bridge 16-20) [triple agonist of SEQ ID NO: 77] , kindly confirm whether its In vitro activity (%) vs. Glucagon, cAMP EC50 is beneath 10%.
# output class 0
